ASSAY_SYSTEM: Solute carrier family 22 member 6 (Rattus norvegicus, UniProt O35956)
Sequence (O35956 whole entry): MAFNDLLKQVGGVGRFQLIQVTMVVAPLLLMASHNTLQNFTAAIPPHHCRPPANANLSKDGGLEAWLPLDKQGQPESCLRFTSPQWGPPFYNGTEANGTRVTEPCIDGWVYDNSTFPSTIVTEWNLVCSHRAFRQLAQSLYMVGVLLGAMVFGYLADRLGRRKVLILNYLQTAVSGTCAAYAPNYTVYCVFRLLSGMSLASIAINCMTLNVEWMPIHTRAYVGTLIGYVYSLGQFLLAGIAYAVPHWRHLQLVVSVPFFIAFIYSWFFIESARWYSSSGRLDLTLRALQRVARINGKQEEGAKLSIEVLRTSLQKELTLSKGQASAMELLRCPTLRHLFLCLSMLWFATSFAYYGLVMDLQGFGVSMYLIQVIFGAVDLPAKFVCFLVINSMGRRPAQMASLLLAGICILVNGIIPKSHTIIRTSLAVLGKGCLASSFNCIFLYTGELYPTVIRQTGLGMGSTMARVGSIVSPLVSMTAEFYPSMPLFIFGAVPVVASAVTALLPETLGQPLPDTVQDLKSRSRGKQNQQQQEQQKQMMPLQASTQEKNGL
ASSAY: TP_TRANSPORTER: inhibition of PAH uptake in Oat1-expressing LLC-PK1 cells
Assay type: functional, cell-based
Answer each item with its documented Ki.
Supply the numeric figure in µM, leaving out any unit text.

**Q:** Look up Ki for this molecule: O=C1OC(c2ccc(OS(=O)(=O)O)cc2)(c2ccc(OS(=O)(=O)O)cc2)c2c(Br)ccc(Br)c21 [DIBROMOSULFOPHTHALEIN]
**A:** 2.74

**Q:** Moving on to CC[C@H](C)C(=O)O[C@H]1C[C@H](O)C=C2C=C[C@H](C)[C@H](CC[C@@H](O)C[C@@H](O)CC(=O)O)[C@H]21 [PRAVASTATIN]
**A:** 1150
